System: 171881-019-R-J1-PDC tumor spheroids, viability;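 further: spheroids exposed to compounds for 7 days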
measurement_protocol: Anticancer human tumor 171881-019-R-J1-PDC patient-derived invasive breast carcinoma cell line growth inhibition [GQUAD]
condition_context: curve of first compound; second compound 3.16 µM; spheroids with HUVEC and MSC
pIC50: −log10 of the molar value.
Examples of compounds with documented pIC50 follow.
test_readout: pIC50

compound	value_reported
CC(=O)O[C@H]1C(=O)[C@@]2(C)[C@H]([C@H](OC(=O)c3ccccc3)[C@]3(O)C[C@H](OC(=O)[C@H](O)[C@@H](NC(=O)c4ccccc4)c4ccccc4)C(C)=C1C3(C)C)[C@]1(OC(C)=O)CO[C@@H]1C[C@@H]2O + Cc1cnc(CNC(=O)c2c(=O)c3ccc(N4CCCN(C)CC4)nc3n3c2sc2ccccc23)cn1	> 7.50
COc1ccc([C@@H](O)c2cc(-c3ncnc4cc(N5CCOCC5)ccc34)c(F)cc2Cl)nn1 + CN(C)c1ccc(Nc2c3ccc(NC(=O)CCN4CCCC4)cc3nc3cc(NC(=O)CCN4CCCC4)ccc23)cc1	> 7.50
CC[C@@]1(O)C(=O)OCc2c1cc1n(c2=O)Cc2cc3c(CN(C)C)c(O)ccc3nc2-1 + Cc1[nH]c2ccc(F)cc2c1-c1nc2c3cccnc3c3ncccc3c2[nH]1	> 9.00
CC1COCCN1c1cc(C2(O)CC3CCC(C2)O3)c2cnn(-c3ccn[nH]3)c2n1 (stereo unspecified) + Cc1cnc(CNC(=O)c2c(=O)c3ccc(N4CCCN(C)CC4)nc3n3c2sc2ccccc23)cn1	> 7.50
Cc1cccc(N(C)C(=O)C2C(O)CCN2c2nc(C)cc(C(F)(F)F)c2C#N)c1 (stereo unspecified) + CN(C)c1ccc(Nc2c3ccc(NC(=O)CCN4CCCC4)cc3nc3cc(NC(=O)CCN4CCCC4)ccc23)cc1	> 7.50
Cc1[nH]c2ccccc2c1CCNCc1ccc(/C=C/C(=O)NO)cc1 + CN(C)c1ccc(Nc2c3ccc(NC(=O)CCN4CCCC4)cc3nc3cc(NC(=O)CCN4CCCC4)ccc23)cc1	> 9.00
CC1COCCN1c1cc(C2(S(C)(=N)=O)CC2)nc(-c2ccnc3[nH]ccc23)n1 (stereo unspecified) + Cc1[nH]c2ccc(F)cc2c1-c1nc2c3cccnc3c3ncccc3c2[nH]1	> 7.50
O=C(NO)c1cnc(N2CCN(S(=O)(=O)c3ccc4ccccc4c3)CC2)nc1 + CN(C)c1ccc(Nc2c3ccc(NC(=O)CCN4CCCC4)cc3nc3cc(NC(=O)CCN4CCCC4)ccc23)cc1	> 7.50
Cc1cccc(N(C)C(=O)C2C(O)CCN2c2nc(C)cc(C(F)(F)F)c2C#N)c1 (stereo unspecified) + Cc1cnc(CNC(=O)c2c(=O)c3ccc(N4CCCN(C)CC4)nc3n3c2sc2ccccc23)cn1	< 5.00
COc1ccc([C@@H](O)c2cc(-c3ncnc4cc(N5CCOCC5)ccc34)c(F)cc2Cl)nn1 + Cc1[nH]c2ccc(F)cc2c1-c1nc2c3cccnc3c3ncccc3c2[nH]1	> 7.50
C#Cc1c(F)ccc2cc(O)cc(-c3ncc4c(N5CC6CCC(C5)N6)nc(OCC56CCCN5CC(F)C6)nc4c3F)c12 (stereo unspecified) + Cc1cnc(CNC(=O)c2c(=O)c3ccc(N4CCCN(C)CC4)nc3n3c2sc2ccccc23)cn1	6.54
COc1cccc2c1C(=O)c1c(O)c3c(c(O)c1C2=O)CC(O)(C(=O)CO)CC3OC1CC(N)C(O)C(C)O1 (stereo unspecified) + Cc1[nH]c2ccc(F)cc2c1-c1nc2c3cccnc3c3ncccc3c2[nH]1	> 7.50
Cn1ncnc1[C@H]1c2n[nH]c(=O)c3cc(F)cc(c23)N[C@@H]1c1ccc(F)cc1 + Cc1[nH]c2ccc(F)cc2c1-c1nc2c3cccnc3c3ncccc3c2[nH]1	> 9.00
O=c1[nH]cc(F)c(=O)[nH]1 + Cc1[nH]c2ccc(F)cc2c1-c1nc2c3cccnc3c3ncccc3c2[nH]1	> 7.50
CCCS(=O)(=O)Nc1ccc(F)c(C(=O)c2c[nH]c3ncc(-c4ccc(Cl)cc4)cc23)c1F + Cc1[nH]c2ccc(F)cc2c1-c1nc2c3cccnc3c3ncccc3c2[nH]1	> 7.50
Cc1[nH]c2ccccc2c1CCNCc1ccc(/C=C/C(=O)NO)cc1 + Cc1[nH]c2ccc(F)cc2c1-c1nc2c3cccnc3c3ncccc3c2[nH]1	> 9.00
CC1COCCN1c1cc(C2(O)CC3CCC(C2)O3)c2cnn(-c3ccn[nH]3)c2n1 (stereo unspecified) + Cc1[nH]c2ccc(F)cc2c1-c1nc2c3cccnc3c3ncccc3c2[nH]1	> 7.50
C#Cc1c(F)ccc2cc(O)cc(-c3ncc4c(N5CC6CCC(C5)N6)nc(OCC56CCCN5CC(F)C6)nc4c3F)c12 (stereo unspecified) + Cc1[nH]c2ccc(F)cc2c1-c1nc2c3cccnc3c3ncccc3c2[nH]1	> 7.50
COc1ncnc(C2CC2)c1-c1ncc2cnn(Cc3ccc(-c4nc(C(F)(F)F)cn4C(C)C)cc3)c2n1 + Cc1[nH]c2ccc(F)cc2c1-c1nc2c3cccnc3c3ncccc3c2[nH]1	> 7.50
CC1COCCN1c1cc(-c2ccnn2C)c2ccnc(-c3ccn[nH]3)c2n1 (stereo unspecified) + CN(C)c1ccc(Nc2c3ccc(NC(=O)CCN4CCCC4)cc3nc3cc(NC(=O)CCN4CCCC4)ccc23)cc1	> 7.50
COc1cc(C2c3cc4c(cc3C(OC3OC5COC(C)OC5C(O)C3O)C3COC(=O)C23)OCO4)cc(OC)c1O (stereo unspecified) + Cc1cnc(CNC(=O)c2c(=O)c3ccc(N4CCCN(C)CC4)nc3n3c2sc2ccccc23)cn1	5.87
